# tgt: UniProt Q8TDV5
# Sequence (Q8TDV5 whole entry): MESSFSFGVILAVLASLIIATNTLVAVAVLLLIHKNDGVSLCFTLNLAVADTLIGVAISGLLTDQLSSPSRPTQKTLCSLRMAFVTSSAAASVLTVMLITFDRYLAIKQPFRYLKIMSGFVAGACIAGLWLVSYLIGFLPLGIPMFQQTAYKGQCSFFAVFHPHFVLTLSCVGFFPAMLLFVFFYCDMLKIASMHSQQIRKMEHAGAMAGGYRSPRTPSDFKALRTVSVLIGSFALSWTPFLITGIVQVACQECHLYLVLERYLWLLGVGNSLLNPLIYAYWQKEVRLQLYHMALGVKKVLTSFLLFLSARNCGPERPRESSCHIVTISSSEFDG
# protocol: cAMP accumulation assay (Cisbio cAMP Gs dynamic HTRF kit) in CHO-K1 cells stably expressing human GPR119
# measurement.conditions: 60 minutes at 37° C., 4-parameter fit
Each entry below carries its recorded EC50.

{"compound": "O=C(Cc1ccc(OCCCC2CCN(c3ncc(Cl)cn3)CC2)cc1F)N1CC2(CCCN2C[C@H](O)[C@H](O)[C@H](O)CO)C1 [Example 60]", "tgt": "UniProt Q8TDV5", "EC50": "≤ 100 nM"}
{"compound": "CCOc1cnc(N2CCC(CCCOc3cc(F)c(CC(=O)N4CCN(C[C@H](O)[C@@H](O)[C@H](O)[C@H](O)CO)CC4)c(F)c3)CC2)nc1 [Example 97]", "tgt": "UniProt Q8TDV5", "EC50": "≤ 100 nM"}
{"compound": "O=C(Cc1ccc(OCCCC2CCN(c3ncc(Cl)cn3)CC2)cn1)N1CCN(C[C@H](O)[C@@H](O)[C@H](O)[C@H](O)CO)CC1 [Example 88]", "tgt": "UniProt Q8TDV5", "EC50": "> 10000 nM"}

Values were extracted from patent US20240217983A1.
